B1: Ankyrin-3, residues 4094 to 4171; numbered along this chain, Q12955 (parent)
chain: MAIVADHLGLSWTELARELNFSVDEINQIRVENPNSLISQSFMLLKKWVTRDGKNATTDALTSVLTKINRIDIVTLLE

# Variants of: B1
# ASSAY COMMENT: abundance fitness (aPCA) (normalised: wild type 0, dead -1); higher = more abundant; growth selection in yeast, the domain comes from the species named
# STATED CONDITIONS: Homo sapiens
Label 1.0 when abundance fitness is at or above -0.3; anything below gets 0.0.

The examples below pair each entry with its known result.
A2P | 1.0
K46W | 0.0
G9C | 0.0
D52T | 0.0
N27W | 0.0
I29W | 0.0

### Prompt Does abundance fitness meet or surpass -0.3 for `T66F` ?
### Response 1.0

### Prompt Assess whether reported abundance fitness for `V64A` sits at -0.3 or higher.
### Response 1.0

### Prompt Reported abundance fitness reaches at least -0.3 for `L19M` ?
### Response 0.0

### Prompt Can `L10R` be said to have abundance fitness at or above -0.3?
### Response 1.0

### Prompt hey, is abundance fitness for this one >= -0.3? `S11D`
### Response 1.0

Attribution: the Human Domainome abundance scans (Beltran et al. 2025)
